# System: KIT-autoinhibited;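 further: KINOMEscan kinase panel screen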
# measurement setup: concentration: 1 μM, replicates: in singlicate; n = 1
# %Inh values compiled below
Give the value, in units of %, as a plain number.

Would you please look over these solved cases?
>>> readout_value("COc1cccc(-n2cnc3c(N)ncnc32)c1 [SKF-97416]")
23
>>> readout_value("O=C(Nc1n[nH]c2nc(-c3ccccc3)c(Cl)cc12)C1CC1 [SB-734909]")
0
>>> readout_value("COC(=O)c1c(-c2ccccc2)c2cc(C)ccc2c(=O)n1Cc1ccccc1")
0
>>> readout_value("COc1cc2ncn(-c3cc(OCCCc4ccccc4)c(C(N)=O)s3)c2cc1OC [GSK205189]")
0
>>> readout_value("CCCNC(=O)Nc1ccc(Oc2ncnc3ccn(C)c23)cc1")
3
>>> readout_value("CCS(=O)(=O)c1ccc(OC)c(Nc2ncc(-c3ccc(F)cc3)o2)c1.Cl [GW591947]")
0
>>> readout_value("CCCC(=O)Nc1n[nH]c2ncc(-c3cccc4ccccc34)cc12 [SB-642057]")
0
>>> readout_value("COc1cc(Nc2nccc(N3CCC(NC(=O)C4COc5ccccc5O4)C3)n2)cc(OC)c1OC (centres unmarked) [GSK1379761]")
0

Quick one: give measured %Inh for COc1cc2nccc(Nc3cccc(Oc4ccccc4)c3)c2cc1OC.Cl [GW284543]
0

Quick one: give measured %Inh for COc1cc(Nc2nccc(N3CCC(NC(=O)C(C)c4ccc(Cl)cc4)C3)n2)cc(OC)c1OC (centres unmarked) [GSK1379757]
0

Quick one: give measured %Inh for Cc1ccc(-c2ccc3c(ccc4sc5c(c43)NC[C@@H](C)N=C5N(C)C)n2)cn1
0

Quick one: give measured %Inh for Cl.c1ccc(Cn2cnc3cc(Nc4ncnc5ccccc45)ccc32)cc1 [GW272142]
4

Quick one: give measured %Inh for Cc1nnc(-c2ccc3ncn(-c4ccc(S(C)=O)cc4)c3c2)o1 (centres unmarked)
0

Quick one: give measured %Inh for O=C(NCCNc1ccnc(Nc2ccc(F)cc2)n1)Nc1ccc2c(c1)OCO2 [GSK1379882]
0
